Where do these numbers come from? They come from the supplement of paper PMC12645437.

Molecular target: T1, CRBN, Q96SW2;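 further: pooled lentiviral library of zinc finger degron-EGFP fusions in mCherry-positive Jurkat cells, FACS-sorted after compound exposure, with degron abundance counted by next-generation sequencing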
T1 chain: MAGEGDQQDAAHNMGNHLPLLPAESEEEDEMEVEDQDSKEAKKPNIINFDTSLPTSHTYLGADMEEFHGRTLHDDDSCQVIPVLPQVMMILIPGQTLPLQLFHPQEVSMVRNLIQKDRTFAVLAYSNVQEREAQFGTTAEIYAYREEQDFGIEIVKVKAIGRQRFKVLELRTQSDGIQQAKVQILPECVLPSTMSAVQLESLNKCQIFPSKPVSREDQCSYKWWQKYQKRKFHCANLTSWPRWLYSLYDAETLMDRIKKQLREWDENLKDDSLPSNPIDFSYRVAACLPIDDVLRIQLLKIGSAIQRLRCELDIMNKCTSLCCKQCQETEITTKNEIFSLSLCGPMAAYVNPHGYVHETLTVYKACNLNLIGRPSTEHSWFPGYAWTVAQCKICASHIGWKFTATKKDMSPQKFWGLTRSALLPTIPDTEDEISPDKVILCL
Assay: log2 fold change of degron read counts, EGFP-low vs EGFP+ sorted cells (limma voom), compound-induced degradation; higher = more compound-induced degradation of the degron-EGFP fusion; degrons are variants of IKZF1/3 zinc finger 2; compound dose not given here
Settings: Jurkat; 18 h; compound: compound 33 (diphenyl IMiD analogue)
In all, about 8,300 sequences were measured (“log2 fold change of degron read counts, EGFP-low vs EGFP+ sorted cells (limma voom), compound-induced degradation”: median about -1.1, highest 2% from about 3.2 on). The list comes from a sample in which the highest values are over-represented; it also holds close analogues and randomly drawn sequences.
Catalogue of sequences with associated log2 fold change of degron read counts
observable: log2 fold change of degron read counts

# sequence-record, observed
measured = [
    ("FWCEICGAQFTQKGNLLRHIKL [46F_47W_49E_50I_52G_53A_54Q_55F_67L_, Q9UKT9]", 2.7),
    ("FMCEICGAQFTQKGNLLRHIKL [46F_47M_49E_50I_52G_53A_54Q_55F_67L_, Q9UKT9]", 2.7),
    ("FDCEICGAQFTQKGNLLRHIKL [46F_47D_49E_50I_52G_53A_54Q_55F_67L_, Q9UKT9]", -0.0023),
    ("LGCEICGFPCTQKGNLLRHIKL [46L_47G_49E_50I_52G_53F_54P_55C_67L_, Q9UKT9]", -2.14),
    ("FICEICGAQFTQKGNLLRHIKL [46F_47I_49E_50I_52G_53A_54Q_55F_67L_, Q9UKT9]", 3.06),
    ("LGCNQCGFSCTQKGNLLRHIKL [46L_47G_49N_50Q_52G_53F_54S_55C_67L_, Q9UKT9]", -1.97),
    ("FTCEICGAQFTQKGNLLRHIKL [46F_47T_49E_50I_52G_53A_54Q_55F_67L_, Q9UKT9]", 2.25),
]
